Target: TBK1 (Homo sapiens)
Sequence (Q9UHD2 1-729): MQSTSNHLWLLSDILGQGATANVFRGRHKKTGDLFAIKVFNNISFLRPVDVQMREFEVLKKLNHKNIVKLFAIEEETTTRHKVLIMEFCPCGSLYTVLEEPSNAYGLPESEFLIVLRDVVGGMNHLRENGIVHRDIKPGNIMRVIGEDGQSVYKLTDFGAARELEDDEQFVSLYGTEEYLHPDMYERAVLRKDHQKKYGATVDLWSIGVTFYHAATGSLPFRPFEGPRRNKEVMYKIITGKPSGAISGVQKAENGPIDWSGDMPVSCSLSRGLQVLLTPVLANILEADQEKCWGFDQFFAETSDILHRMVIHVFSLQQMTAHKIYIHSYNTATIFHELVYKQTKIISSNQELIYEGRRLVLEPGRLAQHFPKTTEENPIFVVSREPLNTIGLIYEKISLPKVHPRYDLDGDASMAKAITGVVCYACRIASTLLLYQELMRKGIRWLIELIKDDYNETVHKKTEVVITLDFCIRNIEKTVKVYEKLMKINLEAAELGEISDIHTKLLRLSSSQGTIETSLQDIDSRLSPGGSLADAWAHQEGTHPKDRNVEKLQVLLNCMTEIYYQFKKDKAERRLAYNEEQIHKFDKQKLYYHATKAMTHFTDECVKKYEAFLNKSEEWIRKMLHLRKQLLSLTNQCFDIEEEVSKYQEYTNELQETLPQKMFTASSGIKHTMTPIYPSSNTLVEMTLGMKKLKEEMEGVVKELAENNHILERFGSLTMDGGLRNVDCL
measured-metric: IC50 (nM)

molecule=CC(C)OC(=O)N1CC=C(c2c[nH]c3ncc(-c4cccc(S(C)(=O)=O)c4)cc23)CC1 target_under_test="TBK1 (Homo sapiens)" measured_metric=IC50 assay_value=30
molecule=CCS(=O)(=O)c1cccc(-c2cnc3[nH]cc(C4=CCN(C(=O)NC5CCCC5)CC4)c3c2)c1 target_under_test="TBK1 (Homo sapiens)" measured_metric=IC50 assay_value=32
molecule=COC(=O)c1ccc(-c2cnc3[nH]cc(C4=CCN(C(=O)OC(C)(C)C)CC4)c3c2)cc1 target_under_test="TBK1 (Homo sapiens)" measured_metric=IC50 assay_value=1600
molecule=O=C(NC1CCCC1)N1CC=C(c2c[nH]c3ncc(-c4ccc(S(=O)(=O)N5CCOCC5)cc4)cc23)CC1 target_under_test="TBK1 (Homo sapiens)" measured_metric=IC50 assay_value=86

###

Molecular target: TBK1 (Homo sapiens, UniProt Q9UHD2)
Sequence (Q9UHD2 1-729): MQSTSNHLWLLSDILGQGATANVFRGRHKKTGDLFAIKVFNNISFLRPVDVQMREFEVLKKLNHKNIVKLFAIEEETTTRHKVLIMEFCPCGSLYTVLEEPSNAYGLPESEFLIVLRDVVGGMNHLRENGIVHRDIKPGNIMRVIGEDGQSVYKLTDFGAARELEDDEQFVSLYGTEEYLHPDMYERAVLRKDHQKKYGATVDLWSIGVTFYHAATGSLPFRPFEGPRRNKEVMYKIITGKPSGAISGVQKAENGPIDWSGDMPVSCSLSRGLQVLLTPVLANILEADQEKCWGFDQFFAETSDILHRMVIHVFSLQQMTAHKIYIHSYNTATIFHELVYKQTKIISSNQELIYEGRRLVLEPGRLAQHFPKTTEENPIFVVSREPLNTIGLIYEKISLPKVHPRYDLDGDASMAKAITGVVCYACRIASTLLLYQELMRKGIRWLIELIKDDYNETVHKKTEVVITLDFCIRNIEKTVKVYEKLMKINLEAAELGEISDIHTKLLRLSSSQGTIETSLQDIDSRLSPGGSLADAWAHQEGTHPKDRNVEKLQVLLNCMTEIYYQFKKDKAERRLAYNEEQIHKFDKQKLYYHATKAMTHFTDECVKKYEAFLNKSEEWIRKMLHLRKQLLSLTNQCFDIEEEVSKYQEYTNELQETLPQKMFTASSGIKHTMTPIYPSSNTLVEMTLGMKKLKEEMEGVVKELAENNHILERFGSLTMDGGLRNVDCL
measured-metric: IC50 (nM)

molecule="COc1ccc(-c2cnc3[nH]cc(C4CCN(C(=O)NC(C)C)C4)c3c2)cc1OC (stereo not shown)" measured_metric=IC50 assay_value=6230
molecule="CC1CN(C(=O)c2cccs2)CC=C1c1c[nH]c2ncc(-c3ccc(CN4CCOCC4)s3)cc12 (stereo not shown)" measured_metric=IC50 assay_value=73
molecule="O=C(NC1CCCC1)N1CC=C(c2c[nH]c3ncc(-c4ccc(Cl)c(C(=O)N5CCOCC5)c4)cc23)CC1 [Example 76, 2,2,2-trifluoroacetate]" measured_metric=IC50 assay_value=290
molecule=CC(C)NC(=O)N1CC=C(c2c[nH]c3ncc(-c4ccc(F)cc4)cc23)CC1 measured_metric=IC50 assay_value=31
molecule=CCCCC(=O)N1CC=C(c2c[nH]c3ncc(-c4ccc(CN5CCOCC5)s4)cc23)CC1 measured_metric=IC50 assay_value=330
molecule=COc1ccc(-c2cnc3[nH]cc(C4=CCN(C(=O)OC(C)C)CC4)c3c2)cc1OC measured_metric=IC50 assay_value=110
molecule=Cc1ccc(C(=O)N2CC=C(c3c[nH]c4ncc(-c5ccc(S(C)(=O)=O)cc5)cc34)CC2)s1 measured_metric=IC50 assay_value=3500

###

target: UniProtKB Q9UHD2
pIC50: −log10 of the molar value.
Classification field: condition met = pIC50 at or over 7; condition not met = pIC50 under 7.

molecule="CC1C=C(c2c[nH]c3ncc(-c4ccc(CN5CCOCC5)s4)cc23)CC(C)N1C(=O)NC1CCCC1 (centres unmarked)" category="condition not met"
molecule=NS(=O)(=O)c1ccc(-c2cnc3[nH]cc(C4=CCN(C(=O)OC5CCCC5)CC4)c3c2)cc1 category="condition met"
molecule="CCC1C=C(c2c[nH]c3ncc(-c4ccc(CN5CCN(C)CC5)s4)cc23)CCN1C(=O)NC(C)C (centres unmarked)" category="condition met"
molecule=CCCN1CC=C(c2c[nH]c3ncc(-c4ccc(OC)c(OC)c4)cc23)CC1 category="condition not met"
molecule=CN(C(=O)N1CC=C(c2c[nH]c3ncc(-c4cccc(S(C)(=O)=O)c4)cc23)CC1)C1CCCC1 category="condition not met"
molecule=CC(C)NC(=O)N1CC=C(c2c[nH]c3ncc(-c4ccc(CN5CCN(C)CC5)s4)cc23)CC1 category="condition met"
molecule="CCC(C)OC(=O)N1CC=C(c2c[nH]c3ncccc23)CC1 (centres unmarked)" category="condition not met"

###

Molecular target: UniProtKB Q9UHD2
Sequence (Q9UHD2 1-729): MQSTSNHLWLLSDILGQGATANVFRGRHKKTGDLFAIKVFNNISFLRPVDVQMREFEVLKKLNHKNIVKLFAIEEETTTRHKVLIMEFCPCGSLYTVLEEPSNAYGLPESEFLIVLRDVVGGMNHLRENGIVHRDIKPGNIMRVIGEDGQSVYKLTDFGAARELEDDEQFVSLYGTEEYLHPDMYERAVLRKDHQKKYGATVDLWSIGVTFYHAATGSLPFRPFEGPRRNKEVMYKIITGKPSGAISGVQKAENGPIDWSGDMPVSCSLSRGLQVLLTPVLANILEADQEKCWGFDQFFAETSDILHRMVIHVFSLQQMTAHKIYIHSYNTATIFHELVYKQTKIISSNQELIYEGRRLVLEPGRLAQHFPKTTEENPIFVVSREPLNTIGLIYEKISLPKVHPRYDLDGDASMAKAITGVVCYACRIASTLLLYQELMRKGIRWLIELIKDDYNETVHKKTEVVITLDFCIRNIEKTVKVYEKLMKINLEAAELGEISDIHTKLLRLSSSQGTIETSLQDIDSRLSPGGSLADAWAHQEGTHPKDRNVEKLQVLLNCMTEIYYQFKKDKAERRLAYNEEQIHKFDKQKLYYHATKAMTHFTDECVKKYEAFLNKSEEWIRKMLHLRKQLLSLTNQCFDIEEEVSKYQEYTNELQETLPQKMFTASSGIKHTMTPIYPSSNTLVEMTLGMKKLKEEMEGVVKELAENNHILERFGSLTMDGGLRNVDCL
Where a name gives a salt, the structure may show the parent alone.
measured-metric: IC50 (nM)

molecule="CC1C=C(c2c[nH]c3ncc(-c4ccc(C(=O)N5CCN(C)CC5)cc4)cc23)CCN1C(=O)NC1CCC1 (stereo not shown)" measured_metric=IC50 assay_value=15
molecule=CC(C)NC(=O)N1CC=C(c2c[nH]c3ncc(-c4ccc(CN5CCOCC5)cc4F)cc23)CC1 measured_metric=IC50 assay_value=32
molecule=COc1ccc(-c2cnc3[nH]cc(C4=CCCN(C(=O)OC(C)(C)C)CC4)c3c2)cc1OC measured_metric=IC50 assay_value=3300
molecule="CC1C=C(c2c[nH]c3ncc(-c4ccc(CN5CCOCC5)s4)cc23)CCN1C(=O)NC1CC1 (stereo not shown)" measured_metric=IC50 assay_value=1.7
molecule=Cc1[nH]c2ncc(-c3ccc(C(=O)N4CCOCC4)cc3)cc2c1C1=CCN(C(=O)NC2CCCC2)CC1 measured_metric=IC50 assay_value=1600
molecule="O=C(NC1CC1)N1CC=C(c2c[nH]c3ncc(-c4ccc(CN5CCNCC5)s4)cc23)CC1 [Example 45, dihydrochloride]" measured_metric=IC50 assay_value=3.3
molecule=COc1ccc(-c2cnc3[nH]cc(C4=CCN(C(=O)OC(C)(C)C)CC4)c3c2)cc1OC measured_metric=IC50 assay_value=300
molecule=CS(=O)(=O)c1cccc(-c2cnc3[nH]cc(C4=CCN(C(=O)c5cccs5)CC4)c3c2)c1 measured_metric=IC50 assay_value=36
molecule=CC(C)(C)OC(=O)N1CC=C(c2c[nH]c3ncc(-c4cccc(S(C)(=O)=O)c4)cc23)CC1 measured_metric=IC50 assay_value=78
molecule=CC(C)(C)OC(=O)N1CC=C(c2c[nH]c3ncc(-c4ccc(C#N)cc4)cc23)CC1 measured_metric=IC50 assay_value=1300
